Recorded IC50 for compounds tested on BTK (Homo sapiens), drawn from a number of studies.

Example entries begin here.
Compound	Subject of test	IC50
CCOc1cc(C(=O)Nc2cc(C(F)(F)F)ccn2)ccc1-c1nc([C@@]2(C)CC[C@@H]3COC(=O)N3C2)n2ccnc(N)c12	BTK (Homo sapiens)	0.61 nM
C=CC(=O)N1CCCC(Nc2cc(Nc3ccc(F)c(Cl)c3)ncn2)C1 (stereo not shown)	BTK (Homo sapiens)	1000 to 10000 nM
C=CC(=O)N1CCC[C@@H](n2nc(-c3ccc(C(=O)Nc4ccccn4)cc3Cl)c3c(N)ncc(C=C)c32)C1	BTK (Homo sapiens)	2 nM
C=CC(=O)N1CC2(CC(n3nc(-c4ccc(Oc5ccccc5)cc4)c4c(N)ncnc43)C2)C1	BTK (Homo sapiens)	1.48 nM

QUERY: Sample CC#CC(=O)N1CCC(c2nc(-c3ccc(Oc4ncccc4F)cc3)n3c(N)nccc23)C1 (stereo not shown) — what was its IC50?
RESULT: < 100 nM

QUERY: Dear colleague, I am looking for the recorded IC50 of the following compound: CC(C)c1ccnc(NC(=O)c2ccc(-c3nn([C@@H]4CCCN(C(=O)/C=C/CN(C)C5CC5)C4)c4ncnc(N)c34)cc2)c1
RESULT: < 100 nM

QUERY: Item CN1CC(n2cc(Nc3nccc(-c4ccc(CNC(=O)c5cc(C(C)(C)C)on5)c(Cl)c4)n3)cn2)C1 has what recorded IC50?
RESULT: < 10 nM

QUERY: Sample C=CC(=O)N1CCCC(c2c(F)cc(C(N)=O)c3[nH]c(C)c(C(F)F)c23)C1 (stereo not shown) — what was its IC50?
RESULT: ≥ 100 nM

QUERY: What measured IC50 goes with CN(C(=O)/C=C/CN(C)C1CC1)c1ccc(-n2nc(-c3ccc(Cl)cc3)c3c(N)ncnc32)cc1 ?
RESULT: < 100 nM

QUERY: Would you kindly share the measured IC50 for Cn1ccc(-c2cccc(NCC(=O)NC3CCCN(c4ncnc5[nH]ccc45)C3)c2)n1 (stereo not shown) ?
RESULT: 1000 to 10000 nM

QUERY: Value lookup for IC50; key = C=CC(=O)N1CC[C@@H](Nc2nc(Nc3cc(C)ns3)nc3sccc23)C1
RESULT: ≤ 50 nM

QUERY: # get_value(readout='IC50', item= O=C(CNc1cccc(Cl)c1Cl)NC1CCCN(c2ncnc3[nH]ccc23)C1 (stereo not shown) )
RESULT: 100 to 999 nM

QUERY: Value lookup for IC50; key = O=C(CNc1ccc(F)c(Cl)c1)N1CCC2CCN(c3ncnc4[nH]ccc34)C2C1 (stereo not shown)
RESULT: < 100 nM

QUERY: Param item = CC1CC(CNC(=O)c2noc(C3(C)CC3)n2)CCN1c1nc(-c2cnn(C)c2)cn2nccc12 (stereo not shown) ; retrieve measured IC50.
RESULT: 1 to 10 nM

QUERY: Requested read-out: IC50. Entry: COc1ccc(C)c(NCC(=O)N[C@@H]2CCCN(c3ncnc4[nH]ccc34)C2)c1
RESULT: 1000 to 10000 nM

QUERY: Could you share which IC50 value was measured for CN(CC(=O)NC1CCCN(c2ncnc3[nH]ccc23)C1)c1ccccc1 (stereo not shown) ?
RESULT: 1000 to 10000 nM

* * *

Record: compiled IC50 on BTK (Homo sapiens, UniProt Q06187) from multiple reports.
Sequence (Q06187 whole entry): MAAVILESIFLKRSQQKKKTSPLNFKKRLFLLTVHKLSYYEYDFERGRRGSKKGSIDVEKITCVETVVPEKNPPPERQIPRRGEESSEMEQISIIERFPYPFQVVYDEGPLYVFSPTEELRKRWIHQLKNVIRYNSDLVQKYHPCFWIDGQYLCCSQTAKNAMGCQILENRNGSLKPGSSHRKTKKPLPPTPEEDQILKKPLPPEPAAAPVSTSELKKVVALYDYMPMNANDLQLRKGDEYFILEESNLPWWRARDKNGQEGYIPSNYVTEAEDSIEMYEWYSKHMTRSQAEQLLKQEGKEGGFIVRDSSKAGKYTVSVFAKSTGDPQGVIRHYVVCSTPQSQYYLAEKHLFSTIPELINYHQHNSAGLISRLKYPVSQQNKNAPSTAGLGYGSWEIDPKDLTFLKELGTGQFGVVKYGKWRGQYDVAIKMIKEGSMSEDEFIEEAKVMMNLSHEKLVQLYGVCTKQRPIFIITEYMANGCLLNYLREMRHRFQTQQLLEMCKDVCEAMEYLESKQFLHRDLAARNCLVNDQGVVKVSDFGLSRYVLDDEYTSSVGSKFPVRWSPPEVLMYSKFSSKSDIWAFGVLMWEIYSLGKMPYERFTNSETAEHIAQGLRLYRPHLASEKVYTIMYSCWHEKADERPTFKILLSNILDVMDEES

Compound	Measured attribute	Measurement
CS(=O)(=O)c1cccc(-c2cnc3[nH]cc(C(=O)c4cc(NS(=O)(=O)c5cccnc5)ccc4F)c3c2)c1	IC50	≤ 10000 nM
C=CC(=O)Nc1cccc(Oc2c(Cl)cnc3[nH]c(-c4ccc(CN5CCCCC5)cc4)nc23)c1	IC50	≤ 50 nM
O=C(CNc1ccccc1)NC1CCCN(c2ncnc3[nH]cc(Cl)c23)C1 (centres unmarked)	IC50	> 10000 nM

QUERY: Lab note: need IC50 for CC(C)(C)c1ccccc1NCC(=O)NC1CCCN(c2ncnc3[nH]ccc23)C1 (centres unmarked) on BTK (Homo sapiens, UniProt Q06187), anyone have it?
RESULT: 1000 to 10000 nM

QUERY: Given the entry C=CC(=O)Nc1cccc(Oc2nc(Nc3ccc(NC4CCN(C(C)C)CC4)nc3)nc3ccsc23)c1 , what IC50 was observed with BTK (Homo sapiens, UniProt Q06187)?
RESULT: ≤ 50 nM

QUERY: Fill in the recorded IC50 for this compound, with BTK (Homo sapiens, UniProt Q06187) as test system: CC(C)C1CCN(C(=O)NC2CCCCc3cc(-c4ccnc(Nc5cnn(C6CCOCC6)c5)n4)ccc32)C1 (centres unmarked)
RESULT: < 10 nM

QUERY: Short answer please: IC50, BTK (Homo sapiens, UniProt Q06187), entry CN(C)C/C=C/C(=O)N(C)c1cccc(-n2nc(-c3ccc(Cl)cc3)c3c(N)ncnc32)c1
RESULT: < 100 nM

QUERY: Request - read-out IC50 | tested on BTK (Homo sapiens, UniProt Q06187) | compound CN(c1ncnc2[nH]ncc12)[C@H]1CCCN(C(=O)CNc2cc(C(F)(F)F)cc(C(F)(F)F)c2)C1
RESULT: > 10000 nM
